Test system: NCI/ADR-RES
Assay: NCI tumour cell line growth inhibition, 48 h
Calls of active or inactive are those of the source. Rule as the data show it: active = GI50 up to about 1.1 µM and inactive = higher.
The reader will find reported GI50 values listed item by item below.

For orientation, consider the following solved cases.
# Molecule, Assay system, GI50
data = [
    ("COc1ccc2cc(-c3nc(N)nc(N4N=C(C)CC4(C)C)n3)c(=N)oc2c1", "NCI/ADR-RES", "31.4 µM (inactive)"),
    ("CCCCCCCCCCCCOP(=O)(O)OCC(N)C(=O)O (stereo not given)", "NCI/ADR-RES", "36.3 µM (inactive)"),
]

// returns reported GI50 for input `OB1OCc2ccccc21`
22.3 µM (inactive)

Next record, please: CC1CNC(c2ccc(COc3ccc(C4=NC(C)CN4)cc3)cc2)=N1 (stereo not given)
> 100 µM (inactive)
